- Test system: HSP17.6C-C1 of Arabidopsis thaliana
- experiment.description: HSP expression test (HSP17.6C-C1 upstream region linked to GUS, 4-MU production)
- Assay type: in vivo
- Set-up: key: 4-MU per plant divided by 4-MU of 50 μM geldanamycin positive control
- condition.label: 100 μM; soaked 6 hours at 22° C.; positive control 50 μM geldanamycin
Catalogue of Ratio of 4-MU amount vs. positive control values
experimental.readout: Ratio of 4-MU amount vs. positive control

>>> df
                                   compound  assay_value
0  CCC(C)C(=O)O[C@H](CC=C(C)C)C1=CC(=O)c2c(O)ccc(O)c2C1=O (stereo partly shown)         1.40
1                NC1=C(Cl)C(=O)c2ccccc2C1=O         0.19
2  CC(C)=CCC(OC(=O)CC(C)C)C1=CC(=O)c2c(O)ccc(O)c2C1=O (stereo not shown)         0.85
3             O=C1C(Cl)=C(Cl)C(=O)c2ccccc21         1.86

Ref: patent US11638425B2
